Taken from paper PMC10709440.

molecular target: Drosophila OR47a (Drosophila melanogaster); construct: expressed in transfected cells; experiment: Calcium ion fluorescence (GCaMP6) assay, OR47a stable HEK293 cell line; type: cell-based; conditions: HEK293, read-out: OR47a response (VUAA1-normalized response)
Sequence (P81921 whole entry, the tested form may be a part): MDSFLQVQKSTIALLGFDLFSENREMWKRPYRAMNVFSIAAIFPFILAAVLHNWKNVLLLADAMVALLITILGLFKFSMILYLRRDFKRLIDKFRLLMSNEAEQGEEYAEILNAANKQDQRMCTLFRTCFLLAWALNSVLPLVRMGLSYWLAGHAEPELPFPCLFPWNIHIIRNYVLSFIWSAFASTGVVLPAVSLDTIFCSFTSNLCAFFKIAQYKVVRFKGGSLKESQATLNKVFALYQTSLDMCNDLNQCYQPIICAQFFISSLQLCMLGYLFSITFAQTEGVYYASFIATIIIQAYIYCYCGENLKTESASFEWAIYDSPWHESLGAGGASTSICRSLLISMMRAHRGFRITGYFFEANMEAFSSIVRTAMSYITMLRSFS
Sequence (Q9VNB5 whole entry partner, the tested form may be a part): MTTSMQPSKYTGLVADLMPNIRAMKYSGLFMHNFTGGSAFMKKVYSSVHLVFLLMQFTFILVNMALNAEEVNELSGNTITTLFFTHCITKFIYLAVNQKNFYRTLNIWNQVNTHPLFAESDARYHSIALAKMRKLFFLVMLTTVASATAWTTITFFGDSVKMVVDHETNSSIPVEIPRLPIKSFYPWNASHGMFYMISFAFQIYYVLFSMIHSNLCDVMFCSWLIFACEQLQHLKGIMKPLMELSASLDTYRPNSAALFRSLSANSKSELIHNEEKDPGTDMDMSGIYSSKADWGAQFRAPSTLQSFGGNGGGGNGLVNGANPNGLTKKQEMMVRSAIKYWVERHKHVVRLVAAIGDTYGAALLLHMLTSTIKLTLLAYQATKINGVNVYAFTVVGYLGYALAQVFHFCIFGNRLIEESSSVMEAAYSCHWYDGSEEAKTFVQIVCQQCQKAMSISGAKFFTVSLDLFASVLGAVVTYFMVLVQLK
Reported Property: activation at 100 µM (%)

[[record]]
molecule = "CC1=CCC2CC1C2(C)C (stereo not drawn)"
value = 0

[[record]]
molecule = "CCCCC(C)=O"
value = 16

[[record]]
molecule = "CCc1ccccc1"
value = 0


* * *

target: Drosophila OR10a (Drosophila melanogaster, UniProt Q9VYZ1); construct: expressed in transfected cells; experiment: Calcium ion fluorescence (GCaMP6) assay, OR10a stable HEK293 cell line; assay type: cell-based; conditions: HEK293, 10 μM VOC; 50 μM VUAA1 = 1; responses not exceeding 0.05 considered 0; read-out: OR10a Average response (VUAA1-normalized)
Sequence (Q9VYZ1 whole entry, one chain of several, the tested form may be a part): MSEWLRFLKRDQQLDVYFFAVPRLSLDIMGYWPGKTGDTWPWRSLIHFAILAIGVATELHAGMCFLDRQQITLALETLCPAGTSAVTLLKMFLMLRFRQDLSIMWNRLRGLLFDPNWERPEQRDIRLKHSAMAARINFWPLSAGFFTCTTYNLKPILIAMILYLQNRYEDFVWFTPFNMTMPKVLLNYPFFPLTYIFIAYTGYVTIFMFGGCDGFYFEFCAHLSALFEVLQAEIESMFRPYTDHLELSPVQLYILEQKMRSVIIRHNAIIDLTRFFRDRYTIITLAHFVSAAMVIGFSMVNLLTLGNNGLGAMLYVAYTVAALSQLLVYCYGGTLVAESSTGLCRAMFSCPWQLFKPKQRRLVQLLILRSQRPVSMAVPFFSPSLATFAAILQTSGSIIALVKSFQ
Binary call on activation at 10 µM: MET from 2% upward, NOT MET beneath that.

[[record]]
compound = "C=CC(O)CCCCC (stereo not drawn)"
category = "MET"

[[record]]
compound = "C=C1CC/C=C(\\C)CC[C@@H]2[C@@H]1CC2(C)C [(-)-trans-caryophyllene]"
category = "MET"

[[record]]
compound = "C=CC(O)C/C=C\\CC (stereo not drawn)"
category = "MET"

[[record]]
compound = "COc1cccc(OC)c1"
category = "NOT MET"

[[record]]
compound = "OCCc1ccccc1"
category = "MET"

[[record]]
compound = "CCCC(=O)OCC [ethyl butyrate]"
category = "MET"

